ASSAY EXPLANATION: Drug repurposing screens with cells derived from glioblastoma tumor samples (AID 1345199); note: % is set by controls: 0 for no effect and ±100 for the full control effect
PROTOCOL CONDITIONS: GBM patient neurospheres viability, ATP luminescence, 48 h; at 46.1 µM (top of the series); tumour line C
Records with an inconclusive call do not appear.

| COMPOUND | UNIT | activity, negative = cell killing |
| --- | --- | --- |
| Cc1ccc(Nc2c(F)cccc2Cl)c(CC(=O)O)c1 | % | -3.92 |
| COc1cc(/C=C/C(=O)O[C@H]2CC[C@]34C[C@]35CC[C@]3(C)[C@@H]([C@H](C)CCC=C(C)C)CC[C@@]3(C)[C@@H]5CC[C@H]4C2(C)C)ccc1O | % | -22.4 |
| C[C@@H]1C[C@H]2[C@@H]3C[C@H](F)C4=CC(=O)C(Cl)=C[C@]4(C)[C@@]3(F)[C@@H](O)C[C@]2(C)[C@@]1(O)C(=O)CO | % | -24.8 |
| C[C@]12CC[C@@H]3c4ccc(O)cc4CC[C@H]3[C@@H]1C[C@@H](O)[C@@H]2O | % | 22.1 |
| CN(C/C=C/c1ccccc1)Cc1cccc2ccccc12 | % | -27.1 |
| CN(C)C(=S)SC(=S)N(C)C | % | -7.02 |
| CCCC(=O)O[C@]1(C(=O)CO)CC[C@H]2[C@@H]3CCC4=CC(=O)CC[C@]4(C)[C@H]3[C@@H](O)C[C@@]21C | % | 6.32 |
| Nc1nc2ncc(CNc3ccc(C(=O)N[C@@H](CCC(=O)O)C(=O)O)cc3)nc2c(=O)[nH]1 | % | -9.36 |
| C=C1C[C@H]2[C@@H]3C=C(C)C4=CC(=O)CC[C@]4(C)[C@H]3CC[C@]2(C)[C@@]1(OC(C)=O)C(C)=O | % | -11.9 |
| CC[N+](CC)(CCNC(=O)C(=O)NCC[N+](CC)(CC)Cc1ccccc1Cl)Cc1ccccc1Cl | % | 15.3 |
| CCCC1O[C@@H]2C[C@H]3[C@@H]4CCC5=CC(=O)C=C[C@]5(C)[C@H]4[C@@H](O)C[C@]3(C)[C@]2(C(=O)CO)O1 (stereo not given in full) | % | -20.2 |
| Nc1cc(Cl)c(NC2=NCCN2)c(Cl)c1 | % | -9.7 |
| COc1cccc2c1C(=O)c1c(O)c3c(c(O)c1C2=O)C[C@@](O)(C(=O)CO)C[C@@H]3O[C@H]1C[C@H](N)[C@H](O)[C@H](C)O1 | % | -4.46 |
| Cc1c(F)c(N2CCNC(C)C2)cc2c1c(=O)c(C(=O)O)cn2C1CC1 (stereo not given) | % | -2.18 |
| Nc1ccc(C(=O)O)cc1 | % | -10.3 |
| OCc1ccccc1O | % | -1.35 |
| O=c1[nH]c(=O)n([C@H]2C[C@H](O)[C@@H](CO)O2)cc1C(F)(F)F | % | -13.3 |
| C[C@]12CCC(=O)C=C1[C@@H]1C[C@@H]1[C@H]1[C@@H]3[C@@H]4C[C@@H]4[C@@]4(CCC(=O)O4)[C@@]3(C)CC[C@@H]12 | % | -0.55 |
| CCOC(=O)COc1ccc2c(C)c(CCN(CC)CC)c(=O)oc2c1Cl | % | -21.4 |
| CC(=O)OCC(=O)[C@@]1(OC(C)=O)[C@@H](C)C[C@H]2[C@@H]3C[C@H](F)C4=CC(=O)C=C[C@]4(C)[C@@]3(F)[C@@H](O)C[C@@]21C | % | -10.3 |
| Oc1c(I)cc(Cl)c2cccnc12 | % | -11.9 |
| CCCCCC=CCC=CCCCCCCCC(=O)OCC | % | -8.48 |
| COc1cccc(OC)c1C(=O)N[C@@H]1C(=O)N2[C@@H]1SC(C)(C)[C@@H]2C(=O)O | % | 14.7 |
| CCOc1ccc2nc3cc(N)ccc3c(N)c2c1 | % | 1.93 |
| C#C[C@]1(OC(C)=O)CC[C@H]2[C@@H]3CCC4=C[C@@H](OC(C)=O)CC[C@@H]4[C@H]3CC[C@@]21C | % | -26.2 |
| CCCN1CCCC[C@H]1C(=O)Nc1c(C)cccc1C | % | -6.18 |
| CCCCC1=NC2(CCCC2)C(=O)N1Cc1ccc(-c2ccccc2-c2nn[nH]n2)cc1 | % | 8.98 |
| CC(O)C(=O)O (stereo not given) | % | -6.94 |
| CNCCC=C1c2ccccc2CCc2ccccc21 | % | -6.98 |
| C[N+]1(CCCCC[N+]2(C)CCCC2)CCCC1 | % | -6.31 |
| CC(C)(Oc1ccc(Cl)cc1)C(=O)O | % | -3.07 |
| CCOC(=O)OC(C)OC1=C(C(=O)Nc2ccccn2)N(C)S(=O)(=O)c2ccccc21 (stereo not given) | % | 20.6 |
| CN1CCC[C@@H]1c1cccnc1 | % | -0.391 |
| CCCCCCCCCCCCCCCCOP(=O)([O-])OCC[N+](C)(C)C | % | -5.47 |
| C[C@H](CCC(=O)O)[C@H]1CC[C@H]2[C@@H]3C(=O)C[C@@H]4CC(=O)CC[C@]4(C)[C@H]3CC(=O)[C@]12C | % | 3.71 |
| COc1cc2c(cc1OC)[C@@H]1CC(=O)[C@@H](CC(C)C)CN1CC2 | % | 1.4 |
| CCN1CCC[C@H]1CNC(=O)c1c(OC)ccc(Br)c1OC | % | -7.43 |
| CC(C)COC(=O)OCN1C(=O)CN(CCN2CC(=O)N(COC(=O)OCC(C)C)C(=O)C2)CC1=O | % | -11 |
| CCCCCCc1ccc(O)cc1O | % | -19.2 |
| CCCCc1nc(Cl)c(CO)n1Cc1ccc(-c2ccccc2-c2nn[nH]n2)cc1 | % | -14.8 |
